System: DU-4475
Assay: normalised viability (% of control), CellTiter-Blue; higher = more viable cells (100 = DMSO, 0 = benzethonium chloride kill control)
Details: incubation time: 72 h
Consider the following compounds and their measured normalised viability readings.
Kindly provide the numeric value in % only, without the unit symbol.

Answered examples (2):
C[C@]12CC[C@@H]3c4ccc(OC(=O)N(CCCl)CCCl)cc4CC[C@H]3[C@@H]1CC[C@@H]2O [Estramustine] (0.099 nM) = 89.9
CC(=O)c1c(C)c2cnc(Nc3ccc(N4CCNCC4)cn3)nc2n(C2CCCC2)c1=O (1 nM) = 99

Lookup result for Oc1ncnc2[nH]ncc12 [Allopurinol] (1 nM) ; measured normalised viability: 109

Consider COc1cc(F)c(F)c(Nc2ccc(I)cc2F)c1NS(=O)(=O)C1(C[C@H](O)CO)CC1 [RDEA119] (1 nM) . Its measured normalised viability is 99.3

// normalised viability lookup, compound = Cc1sc2c(c1C)C(c1ccc(Cl)cc1)=N[C@@H](CC(=O)OC(C)(C)C)c1nnc(C)n1-2 [(+)JQ1] (1 nM) , result: 110

----------
Entries and their measured normalised viability follow.
Tested on: HCC1937
Test: normalised viability (% of control), CellTiter-Blue; higher = more viable cells (about 100 = DMSO control)
Conditions: 10 nM; incubation time: 72 h
Expressed in %, but write only the number.

For orientation, consider the following solved cases.
CC(=O)c1c(C)c2cnc(Nc3ccc(N4CCNCC4)cn3)nc2n(C2CCCC2)c1=O = 38.9
C[C@]1(O)C[C@@H](c2nc(-c3ccc4ccc(-c5ccccc5)nc4c3)c3c(N)nccn32)C1 = 92.8
Oc1ncnc2[nH]ncc12 = 87.2
Nc1nc2[nH]cnc2c(=S)[nH]1 = 76.3
Cc1sc2c(c1C)C(c1ccc(Cl)cc1)=N[C@@H](CC(=O)OC(C)(C)C)c1nnc(C)n1-2 [(+)JQ1] = 109
O=C1CN2Cc3c(ccc(Cl)c3Cl)N=C2N1 [Anagrelide] = 95.6
Cn1cc(C2=Nc3cc(NC(=O)C(N)C4CCCCC4)cc4c3C2=CNNC4=O)cn1 (centres undefined) = 98.2
CC1=C2C[C@H]3[C@@H](CC=C4C[C@@H](O)CC[C@@]43C)[C@@H]2CC[C@]12O[C@@H]1C[C@H](C)CN[C@H]1[C@H]2C = 100

Shift focus to the following entry.
Item COc1cc(F)c(F)c(Nc2ccc(I)cc2F)c1NS(=O)(=O)C1(C[C@H](O)CO)CC1 was tested on HCC1937; the reported normalised viability is 102

----------
The following compounds are listed with their measured normalised response values.
Test system: MDA-MB-436
Assay: normalised response (% of control), CellTiter-Glo; higher = more viable cells (100 = DMSO, 0 = benzethonium chloride kill control)
Conditions: incubation time: 72 h
Give just the number in %; leave the unit off.

Study these solved cases before continuing.
CC(=O)c1c(C)c2cnc(Nc3ccc(N4CCNCC4)cn3)nc2n(C2CCCC2)c1=O [Palbociclib] (10000 nM) = 74.4
O=C1CN2Cc3c(ccc(Cl)c3Cl)N=C2N1 [Anagrelide] (10000 nM) = 96

Field normalised response (MDA-MB-436), entry Cc1ccc([N+](=O)[O-])cc1S(=O)(=O)N(C)/N=C/c1cnc2ccc(Br)cn12 [PIK-75] (10000 nM) : 15

// normalised response (MDA-MB-436) for COc1cc2c(cc1O)CC[C@@H]1[C@@H]2CC[C@]2(C)[C@@H](O)CC[C@@H]12 [2-methoxyestradiol] (10000 nM) = 44.7

----------
System: HCC1143
Assay: normalised response (% of control), CellTiter-Glo; higher = more viable cells (100 = DMSO, 0 = benzethonium chloride kill control)
Conditions: incubation time: 72 h
Param threshold (90%) applies to normalised response; output True when value >= threshold, False when value < threshold.

CC(=O)N(O)CCCCCNC(=O)CCC(=O)N(O)CCCCCNC(=O)CCC(=O)N(O)CCCCCN [Deferoxamine] (1000 nM) = False
CC(=O)N(O)CCCCCNC(=O)CCC(=O)N(O)CCCCCNC(=O)CCC(=O)N(O)CCCCCN [Deferoxamine] (10 nM) = True

Check if normalised response >= 90% (inclusive). Item: CC(C)(C)c1cnc(CSc2cnc(NC(=O)C3CCNCC3)s2)o1 [SNS-032] (1000 nM)
False

Is reported normalised response greater than or equal to 90% here: CC1(C)CCC(CN2CCN(c3ccc(C(=O)NS(=O)(=O)c4ccc(NCC5CCOCC5)c([N+](=O)[O-])c4)c(Oc4cnc5[nH]ccc5c4)c3)CC2)=C(c2ccc(Cl)cc2)C1 [ABT-199] (1 nM)
True

Identify whether the reported normalised response of the following compound is 90% or greater: COc1cc2c(cc1O)CC[C@@H]1[C@@H]2CC[C@]2(C)[C@@H](O)CC[C@@H]12 [2-methoxyestradiol] (1000 nM)
False

----------
System: MDA-MB-453
Assay: normalised response (% of control), CellTiter-Glo; higher = more viable cells (100 = DMSO, 0 = benzethonium chloride kill control)
Details: incubation time: 72 h
Metric name: normalised response

CC1(C)CNc2cc(NC(=O)c3cccnc3NCc3ccncc3)ccc21 [Motesanib] (10 nM) = 106%
Cn1cc(C2=Nc3cc(NC(=O)C(N)C4CCCCC4)cc4c3C2=CNNC4=O)cn1 (stereo not given) (1000 nM) = 35.9%

Looking up CC[C@@H]1C(=O)OC[C@@H]1Cc1cncn1C [Pilocarpine] (40 nM) , I see its normalised response listed as 106%

Looking up Cn1cc(C2=Nc3cc(NC(=O)C(N)C4CCCCC4)cc4c3C2=CNNC4=O)cn1 (stereo not given) (10 nM) , I see its normalised response listed as 91.7%

So, Cn1cc(C2=Nc3cc(NC(=O)C(N)C4CCCCC4)cc4c3C2=CNNC4=O)cn1 (stereo not given) (1 nM) ? Its normalised response was 84.3%

----------
Test system: CAL-85-1
Experiment: normalised viability (% of control), CellTiter-Blue; higher = more viable cells (about 100 = DMSO control)
Settings: 10 nM; incubation time: 72 h
Reported values of normalised viability for individual entries
Form entry: value (%) — number only.

# compound Nc1nc2[nH]cnc2c(=S)[nH]1 [Thioguanine] ; its normalised viability = 102

Item: COc1cc(F)c(F)c(Nc2ccc(I)cc2F)c1NS(=O)(=O)C1(C[C@H](O)CO)CC1 [RDEA119] | normalised viability: 97.3

Lab note: CC1(C)CNc2cc(NC(=O)c3cccnc3NCc3ccncc3)ccc21 [Motesanib] gave normalised viability of 91.4

Lab book: normalised viability of Cn1cnc2c(F)c(Nc3ccc(Br)cc3Cl)c(C(=O)NOCCO)cc21 [Selumetinib] noted as 98.6

normalised viability for Nc1ncn([C@@H]2O[C@H](CO)[C@@H](O)[C@H]2O)c(=O)n1 [Azacitidine] is 95.2

----------
System: CAL-148
Test: normalised response (% of control), CellTiter-Glo; higher = more viable cells (100 = DMSO, 0 = benzethonium chloride kill control)
Conditions: incubation time: 72 h
Metric name: normalised response

Value of normalised response reported for the compound CC(=O)c1c(C)c2cnc(Nc3ccc(N4CCNCC4)cn3)nc2n(C2CCCC2)c1=O [Palbociclib] (10000 nM) is 80.4%

So for Nc1ncn([C@@H]2O[C@H](CO)[C@@H](O)[C@H]2O)c(=O)n1 [Azacitidine] (10000 nM) , the logged normalised response turned out to be 87.7%

Entry Nc1nc2[nH]cnc2c(=S)[nH]1 [Thioguanine] (10000 nM) — recorded normalised response = 68.2%

Lookup result for CC(=O)O[C@@]12CO[C@@H]1C[C@H](O)[C@@]1(C)C(=O)[C@H](O)C3=C(C)[C@@H](OC(=O)[C@H](O)[C@@H](NC(=O)OC(C)(C)C)c4ccccc4)C[C@@](O)([C@@H](OC(=O)c4ccccc4)[C@H]21)C3(C)C [Docetaxel] (1000 nM) ; measured normalised response: 45.5%

----------
normalised response by entry:
Tested on: CAL-51
Test: normalised response (% of control), CellTiter-Glo; higher = more viable cells (100 = DMSO, 0 = benzethonium chloride kill control)
Conditions: incubation time: 72 h
Just the number in %, nothing appended.

O=C1CN2Cc3c(ccc(Cl)c3Cl)N=C2N1 [Anagrelide] (1000 nM) = 88.4
CC(=O)O[C@@]12CO[C@@H]1C[C@H](O)[C@@]1(C)C(=O)[C@H](O)C3=C(C)[C@@H](OC(=O)[C@H](O)[C@@H](NC(=O)OC(C)(C)C)c4ccccc4)C[C@@](O)([C@@H](OC(=O)c4ccccc4)[C@H]21)C3(C)C [Docetaxel] (1 nM) = 115
CC1(C)CCC(CN2CCN(c3ccc(C(=O)NS(=O)(=O)c4ccc(NCC5CCOCC5)c([N+](=O)[O-])c4)c(Oc4cnc5[nH]ccc5c4)c3)CC2)=C(c2ccc(Cl)cc2)C1 [ABT-199] (1 nM) = 122

Lookup result for CC1(C)CCC(CN2CCN(c3ccc(C(=O)NS(=O)(=O)c4ccc(NCC5CCOCC5)c([N+](=O)[O-])c4)c(Oc4cnc5[nH]ccc5c4)c3)CC2)=C(c2ccc(Cl)cc2)C1 [ABT-199] (10 nM) ; measured normalised response: 68.3

The compound listed as O=C1CN2Cc3c(ccc(Cl)c3Cl)N=C2N1 [Anagrelide] (1 nM) shows normalised response equal to 110

Measured normalised response, CC(C)(C)c1cnc(CSc2cnc(NC(=O)C3CCNCC3)s2)o1 [SNS-032] (10 nM) : 65.3

Lab book: normalised response of CC(=O)c1c(C)c2cnc(Nc3ccc(N4CCNCC4)cn3)nc2n(C2CCCC2)c1=O [Palbociclib] (1 nM) noted as 118

Record COc1cc(F)c(F)c(Nc2ccc(I)cc2F)c1NS(=O)(=O)C1(C[C@H](O)CO)CC1 [Refametinib] (1 nM) . Reported normalised response: 75.2

Briefly, normalised response measured for CC1(C)CCC(CN2CCN(c3ccc(C(=O)NS(=O)(=O)c4ccc(NCC5CCOCC5)c([N+](=O)[O-])c4)c(Oc4cnc5[nH]ccc5c4)c3)CC2)=C(c2ccc(Cl)cc2)C1 [ABT-199] (1000 nM) : 69.8
